test system: HL-60; assay: Compound was evaluated for its effect on the growth of HL 60 human leukemia cells; assay type: functional, cell-based
metric: IC50 (nM)
The reply should contain only the number, in nM.

IC50 in this record for `COC(=O)/C=C/c1cc(O)c2c(c1)[C@@H](C(=O)OC)[C@H](c1ccc(O)c(O)c1)O2` : 200

* * *

biological target: Tubulin (Bos taurus, UniProt Q6B856+Q862L2+Q862F3); assay: Inhibitory activity against purified bovine brain tubulin.
pIC50: −log10 of the molar value.
metric: pIC50

pIC50 value, target or system Tubulin (Bos taurus, UniProt Q6B856+Q862L2+Q862F3), for `COC(=O)/C=C/c1cc(OC)c2c(c1)[C@@H](C(=O)OC)[C@H](c1ccc(OC)c(OC)c1)O2` : < 4.40
